Where do the numbers come from? From ChEMBL document CHEMBL3352001.

- Tested on: Salmonella typhimurium
- assay_method_text: Genotoxicity in Salmonella typhimurium Cytox (pr1) expressing lux operon assessed as S/N ratio at 0.1 to 10 ug/mL measured for 4 hrs with 5 mins interval by vitotox assay in presence of S9 fraction
- Type: toxicity, organism-based
- condition_parameters: salmonella enterica subsp. enterica serovar typhimurium, s9, 4 h
Could you please report measured Ratio for the items listed next?

Q. Under Salmonella typhimurium: Ratio value of CC(C)n1c(=O)c2c3c(cnc2n(C(C)C)c1=O)C(=O)C1=C(C3=O)C2CCC1CC2 ?
A. < 1.5

Q. Under Salmonella typhimurium: Ratio value of CCCCCCCn1c(=O)c2c3c(cnc2n(CCCCCCC)c1=O)C(=O)C1=C(C3=O)C2CCC1CC2 ?
A. < 1.5

Q. Under Salmonella typhimurium: Ratio value of CC(C)n1c(=O)c2c3c(cnc2n(C(C)C)c1=O)C(=O)C1=C(C3=O)C2CCC1C2 (centres undefined) ?
A. < 1.5

Q. Under Salmonella typhimurium: Ratio value of CCCCCCCn1c(=O)c2c3c(cnc2n(CCCCCCC)c1=O)C(=O)C1=C(C3=O)C2CCC1C2 (centres undefined) ?
A. < 1.5

----------
- assay_method_text: Selectivity index, ratio of I50 for mouse J774A1 cells to GI50 for Mycobacterium tuberculosis H37Rv
- Assay type: toxicity, cell-based, J774.A1
- condition_parameters: read-out: Selectivity Index
Could you please report measured selectivity ratio for the items listed next?
Give the figure by itself; no unit, no explanation.

Q. I would be grateful if you could share the reported selectivity ratio for CCCCCCCn1c(=O)c2c3c(cnc2n(CCCCCCC)c1=O)C(=O)C1=C(C3=O)C2CCC1C2 (centres undefined) .
A. 42

Q. I would be grateful if you could share the reported selectivity ratio for Cn1c(=O)c2c3c(cnc2n(C)c1=O)C(=O)C1=C(C3=O)C2CCC1CC2 .
A. 5.94

Q. I would be grateful if you could share the reported selectivity ratio for CC(C)CCn1c(=O)c2c3c(cnc2n(CCC(C)C)c1=O)C(=O)C1=C(C3=O)C2CCC1C2 (centres undefined) .
A. 9.32

Q. I would be grateful if you could share the reported selectivity ratio for CCCCCn1c(=O)c2c3c(cnc2n(CCCCC)c1=O)C(=O)C1=C(C3=O)C2CCC1C2 (centres undefined) .
A. 10.6

Q. I would be grateful if you could share the reported selectivity ratio for Cn1c(=O)c2c3c(cnc2n(C)c1=O)C(=O)C1=C(C3=O)C2CCC1C2 (centres undefined) .
A. 9.72

Q. I would be grateful if you could share the reported selectivity ratio for CCCn1c(=O)c2c3c(cnc2n(CCC)c1=O)C(=O)C1=C(C3=O)C2CCC1CC2 .
A. 8.5

Q. I would be grateful if you could share the reported selectivity ratio for CCn1c(=O)c2c3c(cnc2n(CC)c1=O)C(=O)C1=C(C3=O)C2CCC1CC2 .
A. 7.79

Q. I would be grateful if you could share the reported selectivity ratio for CC(C)Cn1c(=O)c2c3c(cnc2n(CC(C)C)c1=O)C(=O)C1=C(C3=O)C2CCC1CC2 .
A. 4.69

Q. I would be grateful if you could share the reported selectivity ratio for CCCCCCCn1c(=O)c2c3c(cnc2n(CCCCCCC)c1=O)C(=O)C1=C(C3=O)C2CCC1CC2 .
A. 24.8

----------
- assay_method_text: Selectivity index, ratio of I50 for mouse J774A1 cells to GI50 for Mycobacterium tuberculosis H37Rv
- Format: toxicity, cell-based, J774.A1
- condition_parameters: read-out: Selectivity Index
Could you please report measured selectivity ratio for the items listed next?
Give the figure by itself; no unit, no explanation.

Q. I would be grateful if you could share the reported selectivity ratio for CC(C)Cn1c(=O)c2c3c(cnc2n(CC(C)C)c1=O)C(=O)C1=C(C3=O)C2CCC1C2 (stereo unspecified) .
A. 8.06

Q. I would be grateful if you could share the reported selectivity ratio for CCCCCCn1c(=O)c2c3c(cnc2n(CCCCCC)c1=O)C(=O)C1=C(C3=O)C2CCC1C2 (stereo unspecified) .
A. 9.9

Q. I would be grateful if you could share the reported selectivity ratio for CCCCn1c(=O)c2c3c(cnc2n(CCCC)c1=O)C(=O)C1=C(C3=O)C2CCC1C2 (stereo unspecified) .
A. 6.51

Q. I would be grateful if you could share the reported selectivity ratio for CCCCCCn1c(=O)c2c3c(cnc2n(CCCCCC)c1=O)C(=O)C1=C(C3=O)C2CCC1CC2 .
A. 10.1

Q. I would be grateful if you could share the reported selectivity ratio for CC(C)n1c(=O)c2c3c(cnc2n(C(C)C)c1=O)C(=O)C1=C(C3=O)C2CCC1CC2 .
A. 16.1

Q. I would be grateful if you could share the reported selectivity ratio for CCn1c(=O)c2c3c(cnc2n(CC)c1=O)C(=O)C1=C(C3=O)C2CCC1C2 (stereo unspecified) .
A. 10.8

Q. I would be grateful if you could share the reported selectivity ratio for CC(C)CCn1c(=O)c2c3c(cnc2n(CCC(C)C)c1=O)C(=O)C1=C(C3=O)C2CCC1CC2 .
A. 4.77

Q. I would be grateful if you could share the reported selectivity ratio for CC(C)n1c(=O)c2c3c(cnc2n(C(C)C)c1=O)C(=O)C1=C(C3=O)C2CCC1C2 (stereo unspecified) .
A. 10.8

Q. I would be grateful if you could share the reported selectivity ratio for CCCn1c(=O)c2c3c(cnc2n(CCC)c1=O)C(=O)C1=C(C3=O)C2CCC1C2 (stereo unspecified) .
A. 18.7

Q. I would be grateful if you could share the reported selectivity ratio for CCCCCn1c(=O)c2c3c(cnc2n(CCCCC)c1=O)C(=O)C1=C(C3=O)C2CCC1CC2 .
A. 11

Q. I would be grateful if you could share the reported selectivity ratio for CCCCn1c(=O)c2c3c(cnc2n(CCCC)c1=O)C(=O)C1=C(C3=O)C2CCC1CC2 .
A. 5.36
